src = paper PMC10397247

# Test Target: T1, 4H324-AA
# T1 chain: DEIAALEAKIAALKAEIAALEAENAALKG
# Assay Overview: two-hybrid library CCmax;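 also: natural log of median RNA to DNA barcode read ratio; higher means stronger binding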
# Test Parameters: mean of both orientations
Measured interaction score by item
Experimental Endpoint: interaction score

[
  {
    "Binder": "DKNAALEAEIAALEAENAALEAKIAALKG [4H3094-AA]",
    "Experimental Endpoint": "interaction score",
    "Meas Value": -0.623
  },
  {
    "Binder": "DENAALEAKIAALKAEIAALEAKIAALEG [4H1349-AA]",
    "Experimental Endpoint": "interaction score",
    "Meas Value": 1.84
  },
  {
    "Binder": "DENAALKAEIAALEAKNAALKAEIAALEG [4H1593-AA]",
    "Experimental Endpoint": "interaction score",
    "Meas Value": -1.58
  },
  {
    "Binder": "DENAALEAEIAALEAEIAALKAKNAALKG [4H1040-AA]",
    "Experimental Endpoint": "interaction score",
    "Meas Value": 1.68
  }
]
